# maps each entry to its growth inhibition
Test: NCI Yeast Anticancer Drug Screen. Data for the sgs1 mgt1 strain (AID 161);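 also: 0% = growth of cultures given vehicle only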
Conditions: S. cerevisiae sgs1 mgt1 strain, at 50.0 µM (retest, dose inferred, filed as 5.0), stronger effect = higher value
The panel holds about 79,000 compounds, 15% with a hit somewhere; the sample as a whole holds those more often.
Kindly answer with a numeric value in %, unit omitted.

As a guide, the following entries are already answered.
INSERT INTO measurements (compound, result_value) VALUES
  ('CC(C)C(Sc1nc(-c2ccccc2)c(-c2ccccc2)[nH]1)c1n[nH]c(=S)n1-c1ccccc1 (stereo unspecified)', 98),
  ('CCOC(=O)n1c2ccccc2c(=O)n1CCO', -12),
  ('O=C(CNc1ccc(Cl)cc1)Nn1c(-c2ccccc2)nc2ccccc2c1=O', 30),
  ('CCCCCCCCCCCCCCC[N+]1(CC)CCCCC1', 99),
  ('CC(=O)C(C(=N)C#N)C(=O)Nc1ccccc1 (stereo unspecified)', 7),
  ('CN1c2ccccc2C(c2ccccc2)c2ccc(Nc3ccccc3)cc21 (stereo unspecified)', 100),
  ('CNCC(O)c1cccc(O)c1 (stereo unspecified)', -7),
  ('COc1ccc(C2C3=C(CC(C)(C)CC3=O)Oc3cc4c(cc32)OCO4)c(OC)c1 (stereo unspecified)', -17);

Let's switch to this compound now.
Challenge: What growth inhibition value was documented for this compound, CC(C)=CCC/C(C)=C/CC/C(C)=C/CSc1ccccc1C(=O)O ?
Response given: 10

----------
Test: NCI Yeast Anticancer Drug Screen. Data for the rad50 strain (AID 155);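 also: 0% = growth of vehicle-only cultures of the same strain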
Conditions: S. cerevisiae rad50 strain growth inhibition; at 50.0 µM (retest, dose inferred, filed as 5.0); stronger effect = higher value
About 79,000 compounds went through this panel and 15% of them were active in at least one assay; those are over-represented in the sample as a whole. Where a SMILES comes first, the peptide text is derived from it. [ ]: non-standard residue; d: D form. The star is where a group is joined. Phe(2-OMe) = COc1ccccc1C[CH](N)C(=O)O; Cbz = O=C(OCc1ccccc1)*; OBn = c1ccc(CO*)cc1
# maps each entry to its growth inhibition
Kindly answer with a numeric value in %, unit omitted.

INSERT INTO measurements (compound, endpoint, result_value) VALUES
  ('Clc1ccc2nc3ccccc3nc2c1', 'growth inhibition', 96),
  ('O=C(OCc1ccccc1)N(CCCCN(CCCNCc1ccccc1)C(=O)OCc1ccccc1)CCCNCc1ccccc1', 'growth inhibition', 99),
  ('CCCCCCCCCCCCCC/C(=C/OCC[N+](C)(C)C)OC(C)=O (tested in a mixture with another compound)', 'growth inhibition', 99);

Challenge: What growth inhibition value was documented for this compound, COC(=O)C(Cc1ccccc1OC)NC(=O)C(CC(=O)OCc1ccccc1)NC(=O)OCc1ccccc1 (stereo not given) (Cbz-Asp(OBn)-[Phe(2-OMe)]-OMe; configuration not given here) ?
Response given: 84

Challenge: What growth inhibition value was documented for this compound, Fc1cccc(NC(=S)SCc2ccco2)c1 ?
Response given: 84

----------
Experiment: NCI Yeast Anticancer Drug Screen. Data for the mlh1 rad18 strain (AID 175)
Settings: S. cerevisiae mlh1 rad18 strain growth inhibition; at 50.0 µM
This is part of a sample that, as a whole, favours compounds with a hit. Of some 79,000 tested, about 15% had one in any assay. Activity calls are given as the source filed them. No stated cut-off is given here; in the data, active means growth inhibition above about 70%; inactive means the rest.
Reply using exactly one outcome from Y (active), N (inactive)

Below, 9 compounds whose answers are already recorded.
INSERT INTO measurements (compound, class_name) VALUES
  ('O=C(/C=C(\C(=O)c1ccccc1)N(/C(=C/C(=O)c1ccccc1)C(=O)c1ccccc1)c1ccccc1)c1ccccc1', 'Y'),
  ('C=CCc1ccc2c(C)cc[n+](C)c2c1O', 'Y'),
  ('CNC(=O)NC(c1cc(OC)c(OC)c(OC)c1)c1cc2c(cc1O)OCO2 (stereo not given)', 'N'),
  ('O=C(CCc1ccccc1)OCC1OC(OC(=O)CCc2ccccc2)C(OC(=O)CCc2ccccc2)C(OC(=O)CCc2ccccc2)C1OC(=O)CCc1ccccc1 (stereo not given)', 'N'),
  ('CCCCCCCCC/C=C1\CCC(CN(C)C)C1=O (stereo not given)', 'Y'),
  ('O=C(O)c1c(Cl)c(Cl)c(Cl)c(Cl)c1-c1c2ccc(=O)cc-2oc2cc(O)ccc12', 'Y'),
  ('Brc1ccc(N=NN2CCCC2)cc1', 'Y'),
  ('COc1ccc2c(c1)nc1cc(Cl)ccc1[n+]2C', 'Y'),
  ('O=[N+]([O-])c1cccc(F)c1O', 'Y');

# next compound below
Challenge: Any idea what this test logged for CCOC(=O)C1CC2(CCC1N)c1ccccc1-c1ccccc12 (stereo not given) ?
Response given: N

----------
Test: NCI Yeast Anticancer Drug Screen. Data for the cln2 rad14 strain (AID 165);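 also: 0% = growth equal to vehicle treated cultures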
Settings: S. cerevisiae cln2 rad14 strain, at 50.0 µM (retest, dose inferred, filed as 5.0)
This is part of a sample that, as a whole, favours compounds with a hit. Of some 79,000 tested, about 15% had one in any assay. Active and inactive are the calls of the source. Rule as the data show it: active = growth inhibition above about 70%; inactive = the rest.
Reply using exactly one outcome from active, inactive

INSERT INTO results (compound, class_name) VALUES
  ('COc1cccc2c1C(=O)c1c(O)c3c(c(O)c1C2=O)CC(O)(C(=O)CO)CC3OC1CC(N)C(I)C(C)O1 (stereo unspecified)', 'active'),
  ('O=[N+]([O-])c1nccn1CCCNCCCn1ccnc1[N+](=O)[O-]', 'inactive'),
  ('C=CCCCCCCCCC(=O)CCCCCCCCC=C', 'inactive');

Challenge: Any idea what this test logged for N#COc1ccc(Oc2ccc(OC#N)cc2)cc1 ?
Response given: inactive

Challenge: Any idea what this test logged for C[N+]1(c2ccccc2)C=C(c2ccccc2)SC1=S (stereo unspecified) ?
Response given: inactive

Challenge: Any idea what this test logged for COc1ccc(C(=O)c2cc(Br)ccc2O)cc1 ?
Response given: inactive

----------
Assay: NCI Yeast Anticancer Drug Screen. Data for the mec2-1 strain (AID 157)
Details: S. cerevisiae mec2-1 strain, at 50.0 µM
This is part of a sample that, as a whole, favours compounds with a hit. Of some 79,000 tested, about 15% had one in any assay. Active and inactive are the calls of the source. Rule as the data show it: active = growth inhibition above about 70%; inactive = the rest.
Reply using exactly one outcome from active, inactive

INSERT INTO assay_data (compound, class_name) VALUES
  ('COc1ccccc1C1c2cc3c(cc2OC(N2CCOCC2)C1C)OCO3 (stereo unspecified)', 'inactive');

# next compound below
Challenge: Any idea what this test logged for COc1cc2c(cc1OC(C)=O)C(=O)C(Br)(Br)CCC2 ?
Response given: active

----------
# maps each entry to its growth inhibition
Assay: NCI Yeast Anticancer Drug Screen. Data for the bub3 strain (AID 167)
Conditions: S. cerevisiae bub3 mutant strain, at 50.0 µM (retest, dose inferred, filed as 5.0), stronger effect = higher value
Experimental: Growth inhibition of yeast strains with defined genetic alterations is measured as a screen for potential anti-cancer activity. Selected strains with alterations in DNA damage repair or cell cycle control were exposed to compounds and growth inhibition was measured relative to vehicle treated controls. The strain used in this assay is bub3
About 79,000 compounds went through this panel and 15% of them were active in at least one assay; those are over-represented in the sample as a whole. The source made the active and inactive calls. No stated cut-off is given here; in the data, active means growth inhibition above about 70%; inactive means the rest.

INSERT INTO results (compound, endpoint, result_value) VALUES
  ('CC(O)c1cccnc1 (stereo unspecified)', 'growth inhibition', '47% (inactive)'),
  ('CCc1c(O)sc2c(c1=O)C(=NCC(C)C)CC(C)(C)N2', 'growth inhibition', '4% (inactive)'),
  ('CCCCN(CCO)CCNc1ccc(C)c2sc3ccccc3c(=O)c12', 'growth inhibition', '99% (active)'),
  ('CN1C(=S)C(=N)OC1c1ccccc1F (stereo unspecified)', 'growth inhibition', '99% (active)'),
  ('CSc1nc(C)cc(SCc2ccc(Cl)cc2Cl)n1', 'growth inhibition', '18% (inactive)');

Let's switch to this compound now.
Challenge: What growth inhibition value was documented for this compound, COC(=O)c1cc(-c2ccc(C)cc2)c2c(=O)n(-c3ccccc3)[nH]c2n1 ?
Response given: 69% (inactive)

----------
Assay: NCI Yeast Anticancer Drug Screen. Data for the mec2-1 strain (AID 157)
Conditions: S. cerevisiae mec2-1 strain, at 5.0 µM (retest, dose inferred, filed as 0.5), stronger effect = higher value
The panel holds about 79,000 compounds, 15% with a hit somewhere; the sample as a whole holds those more often.
ENDPOINT: growth inhibition (%)
Kindly answer with a numeric value in %, unit omitted.

As a guide, the following entries are already answered.
INSERT INTO results (compound, result_value) VALUES
  ('CSC(=S)N/N=C(\C)c1ccc[nH]1', 0),
  ('N[C@@H]1CCCC[C@@H]1N.O=C([O-])CN(CP(=O)([O-])[O-])CP(=O)([O-])[O-].[Pt+2]', 6),
  ('Cc1c2cnccc2c(C)c2c1c1ccccc1n2CCCCCCNCc1ccccc1', -1);

Challenge: What growth inhibition value was documented for this compound, CN(C)C1=NC(N(C)C)=C2C=CC=C12 ?
Response given: -2
